assay: Phase I clinical trial, food effect part: pharmacokinetics of C21 fed vs fasted; assay type: in vivo, human; settings: both sexes, human, plasma, po, 75 mg, single oral dose 75 mg, Fed, N = 10; read-out: t1/2, Arithmetic Mean
MEASURE: half-life

IN: Given CCCCOC(=O)NS(=O)(=O)c1sc(CC(C)C)cc1-c1ccc(Cn2ccnc2)cc1 , state its recorded half-life.
OUT: < 1 h

* * *

assay: Phase I clinical trial, food effect part: pharmacokinetics of C21 fed vs fasted; assay type: in vivo, human; conditions: both sexes, human, plasma, po, 75 mg, single oral dose 75 mg, Fasted, N = 9, plasma; read-out: Cmax, Arithmetic Mean
MEASURE: Cmax (ng/mL)
One number for each entry, in ng/mL.

IN: Given CCCCOC(=O)NS(=O)(=O)c1sc(CC(C)C)cc1-c1ccc(Cn2ccnc2)cc1 [C21] , state its recorded Cmax.
OUT: 1810

* * *

test: Phase I clinical trial, food effect part: pharmacokinetics of C21 fed vs fasted; format: in vivo, human; details: both sexes, human, plasma, po, 75 mg, single oral dose 75 mg, Fasted, N = 9; read-out: tmax, Median
MEASURE: Tmax (min)
Numbers only, in min.

IN: Given CCCCOC(=O)NS(=O)(=O)c1sc(CC(C)C)cc1-c1ccc(Cn2ccnc2)cc1 , state its recorded Tmax.
OUT: 40.2

* * *

test: Phase I clinical trial, food effect part: pharmacokinetics of C21 fed vs fasted; type: in vivo, human; details: both sexes, human, plasma, po, 75 mg, single oral dose 75 mg, Fed, N = 10; read-out: AUC(0-6), Geometric Mean
MEASURE: AUC(0-t) (ng·h/mL)
One number for each entry, in ng·h/mL.

IN: Given CCCCOC(=O)NS(=O)(=O)c1sc(CC(C)C)cc1-c1ccc(Cn2ccnc2)cc1 , state its recorded AUC(0-t).
OUT: 732

* * *

assay: Phase I clinical trial, food effect part: pharmacokinetics of C21 fed vs fasted; format: in vivo, human; details: both sexes, human, plasma, po, 75 mg, single oral dose 75 mg, Fed, N = 10; read-out: AUC(0-24), Arithmetic Mean
MEASURE: AUC(0-t) (ng·h/mL)
Numbers only, in ng·h/mL.

IN: Given CCCCOC(=O)NS(=O)(=O)c1sc(CC(C)C)cc1-c1ccc(Cn2ccnc2)cc1 [C21] , state its recorded AUC(0-t).
OUT: 792

* * *

assay: Phase I clinical trial, food effect part: pharmacokinetics of C21 fed vs fasted; type: in vivo, human; details: both sexes, human, plasma, oral, 75 mg, Fasted (N = 9), mixed ANOVA model; read-out: AUC(0-24), Geometric Mean (95% CI), mixed effects model
MEASURE: AUC(0-t) (ng·h/mL)
One number for each entry, in ng·h/mL.

IN: Given CCCCOC(=O)NS(=O)(=O)c1sc(CC(C)C)cc1-c1ccc(Cn2ccnc2)cc1 , state its recorded AUC(0-t).
OUT: 1710

* * *

assay: Phase I clinical trial, food effect part: pharmacokinetics of C21 fed vs fasted; assay type: in vivo, human; settings: both sexes, human, plasma, po, 75 mg, single oral dose 75 mg, Fed, N = 10; read-out: Vz/F, Arithmetic Mean
MEASURE: Vd/F (L)
One number for each entry, in L.

IN: Given CCCCOC(=O)NS(=O)(=O)c1sc(CC(C)C)cc1-c1ccc(Cn2ccnc2)cc1 , state its recorded Vd/F.
OUT: 120
